Ref: a collection of fitness landscapes (doi:10.1126/science.1257360)

B1: PhoQ; a variant is named by its letters at X, in order, P23837 (parent)
chain: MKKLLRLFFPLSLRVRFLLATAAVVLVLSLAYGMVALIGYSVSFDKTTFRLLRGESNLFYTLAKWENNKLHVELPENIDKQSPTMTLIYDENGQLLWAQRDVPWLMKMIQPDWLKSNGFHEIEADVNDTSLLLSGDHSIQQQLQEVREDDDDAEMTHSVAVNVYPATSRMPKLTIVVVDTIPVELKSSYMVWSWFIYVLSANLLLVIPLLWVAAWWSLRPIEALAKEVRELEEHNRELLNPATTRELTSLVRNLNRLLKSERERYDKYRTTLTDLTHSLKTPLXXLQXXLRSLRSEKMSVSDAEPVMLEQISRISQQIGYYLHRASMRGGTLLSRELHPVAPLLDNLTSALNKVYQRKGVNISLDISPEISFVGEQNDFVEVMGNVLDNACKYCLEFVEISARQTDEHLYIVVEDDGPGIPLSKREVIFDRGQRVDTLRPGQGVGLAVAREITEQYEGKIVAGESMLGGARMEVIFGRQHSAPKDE

variants of: B1; assay: enrichment ratio after two sorts for PhoP signalling (ratio (wild type AVST 3.29)); higher = more functional; conditions: with PhoP (E. coli)
The full ranking holds about 140,000 sequences; the median of “enrichment ratio after two sorts for PhoP signalling” is about 0, and the highest 2% start at about 11. The entries come from a sample that favours the highest values as a whole.
assay-metric: enrichment ratio

Some entries whose results are on file:
- variant-description: "QESG"
  enrichment ratio: 6.03
- variant-description: "TESG"
  enrichment ratio: 24.9
- variant-description: "PESG"
  enrichment ratio: "≤ 0.25"
- variant-description: "EMVN"
  enrichment ratio: "≤ 0.25"
- variant-description: "SLSG"
  enrichment ratio: 11.8

// each listed variant needs a value for enrichment ratio
1. SRSG
2. NESG
3. EGVD
4. QKNG

1: ≤ 0.25; 2: ≤ 0.25; 3: ≤ 0.25; 4: ≤ 0.25

// each variant listed below needs its enrichment ratio
1. VQIN
2. QESN

["≤ 0.25", 5.1]
